Target: UniProt P10275
Sequence (P10275 whole entry): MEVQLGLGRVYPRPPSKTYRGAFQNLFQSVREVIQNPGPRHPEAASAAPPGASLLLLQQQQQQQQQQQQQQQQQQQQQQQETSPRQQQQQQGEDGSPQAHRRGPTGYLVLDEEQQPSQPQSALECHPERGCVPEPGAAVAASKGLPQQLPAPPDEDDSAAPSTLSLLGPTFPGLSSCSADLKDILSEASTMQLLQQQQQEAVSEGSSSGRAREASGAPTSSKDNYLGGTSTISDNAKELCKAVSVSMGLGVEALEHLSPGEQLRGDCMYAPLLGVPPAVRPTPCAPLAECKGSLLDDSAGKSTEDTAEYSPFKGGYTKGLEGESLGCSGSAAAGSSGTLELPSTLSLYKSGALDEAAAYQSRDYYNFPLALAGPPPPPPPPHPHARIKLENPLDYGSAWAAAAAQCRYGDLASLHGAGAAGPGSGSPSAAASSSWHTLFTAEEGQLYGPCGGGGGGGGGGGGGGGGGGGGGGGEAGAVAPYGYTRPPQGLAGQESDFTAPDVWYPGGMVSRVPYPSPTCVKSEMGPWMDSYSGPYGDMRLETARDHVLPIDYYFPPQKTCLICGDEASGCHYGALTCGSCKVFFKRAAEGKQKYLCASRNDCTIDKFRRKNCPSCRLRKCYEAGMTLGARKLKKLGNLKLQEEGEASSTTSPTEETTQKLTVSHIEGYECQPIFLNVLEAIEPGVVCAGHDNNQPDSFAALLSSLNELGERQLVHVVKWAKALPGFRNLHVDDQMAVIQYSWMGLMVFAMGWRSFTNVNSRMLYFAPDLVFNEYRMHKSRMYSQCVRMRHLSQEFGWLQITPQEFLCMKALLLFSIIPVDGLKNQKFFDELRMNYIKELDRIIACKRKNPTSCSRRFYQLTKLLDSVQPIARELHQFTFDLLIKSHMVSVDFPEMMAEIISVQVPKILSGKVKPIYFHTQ
Assay: Antagonist activity at human androgen receptor LBD expressed in human MDA-kb2 cells by luciferase reporter gene assay
Type: cell-based
Conditions: read-out: IC50
Consider the following molecules; for each one, report its IC50.
Numbers only, in nM.

// each molecule listed below needs its IC50
1. N#Cc1ccc(-c2cc(=O)c3c(F)cccc3o2)cc1
2. Cc1ccc(-c2cc(=O)c3c(O)cccc3o2)cc1
3. Nc1ccc(-c2cc(=O)c3c(O)cccc3o2)cc1
4. O=c1cc(-c2ccc(Cl)cc2)oc2cccc(O)c12
5. O=c1cc(-c2ccc([N+](=O)[O-])cc2)oc2cccc(O)c12
6. O=c1cc(-c2ccc(F)cc2)oc2cccc(F)c12

Response:
1: 1200; 2: 11100; 3: 1990; 4: 460; 5: 360; 6: 190

// each molecule listed below needs its IC50
1. NC(=O)c1ccc(-c2cc(=O)c3c(O)cccc3o2)cc1
2. N#Cc1ccc(-c2cc(=O)c3c(O)cccc3o2)cc1
3. O=c1cc(-c2ccc(Cl)cc2)oc2cccc(F)c12
4. O=c1cc(-c2ccc(C(F)(F)F)cc2)oc2cccc(O)c12
5. O=c1cc(-c2ccccc2)oc2cccc(F)c12
6. O=c1cc(-c2ccc(O)cc2)oc2cccc(O)c12
7. CSc1ccc(-c2cc(=O)c3c(O)cccc3o2)cc1
8. O=c1cc(-c2ccc(F)cc2)oc2cccc(O)c12

Response:
[3580, 250, 360, 1240, 770, 860, 1070, 330]

// each molecule listed below needs its IC50
1. COc1cccc2oc(-c3ccc(F)cc3)cc(=O)c12
2. CN(C)c1ccc(-c2cc(=O)c3c(O)cccc3o2)cc1

Response:
[1610, 850]
